These measurements were taken from the supplement of paper PMC8882468.

- System: HCI-019 (organoid from a triple-negative breast cancer xenograft)
- method description: CTG-3D luminescence at 96 h relative to day-0 seeding control (ratio to day 0); higher = more growth / less cytotoxicity; PDxO 3D drug screen, 96 h, CTG-3D normalised to day-0 seeding control.
- assay context: 100 µM; days in culture: 152
measured attribute: CTG-3D luminescence at 96 h
Lab note: jot down the number only; don't add units.

Query: So what does the record say about CTG-3D luminescence at 96 h for CC1(C)CCC(c2ccc(Cl)cc2)=C(CN2CCN(c3ccc(C(=O)NS(=O)(=O)c4ccc(N[C@H](CCN5CCOCC5)CSc5ccccc5)c(S(=O)(=O)C(F)(F)F)c4)cc3)CC2)C1 [navitoclax] ?
Response: 0.00119

Query: So what does the record say about CTG-3D luminescence at 96 h for CC(C)n1nc(-c2ccc3oc(N)nc3c2)c2c(N)ncnc21 [sapanisertib] ?
Response: 0.0357

Query: So what does the record say about CTG-3D luminescence at 96 h for COc1cc2c(Oc3ccc4[nH]c(C)cc4c3F)ncnc2cc1OCCCN1CCCC1 [cediranib] ?
Response: 0.000827

Query: So what does the record say about CTG-3D luminescence at 96 h for Cc1cc(Nc2ncc(Cl)c(Nc3ccccc3S(=O)(=O)C(C)C)n2)c(OC(C)C)cc1C1CCNCC1 [ceritinib] ?
Response: -0.00373

Query: So what does the record say about CTG-3D luminescence at 96 h for C/C=C1\NC(=O)[C@H]2CSSCC/C=C/[C@H](CC(=O)N[C@H](C(C)C)C(=O)N2)OC(=O)[C@H](C(C)C)NC1=O [romidepsin] ?
Response: -0.00783
